Source listed as the DeepSol protein solubility set.

# PROTOCOL SUMMARY: soluble on expression in E. coli; label from the status in PepcDB or PDB records
TEST READOUT: soluble on expression in E. coli

MAHHHHHHMPSDGEGKVQQVNIDEIDAVTGFKKAELYVWNAYAAAFLAEGGEPETDVEAWIDDFCQRSEESGAVFDRNFVKSVCTLGIYAGPRDEFQQRSGCGKATYASGDTYEGEFFEGKKHGRGQYIFVSKGRSEADRVVSKEVELLTSAGKDAKAMVTEIATKLQLGRHVVEGIMQYGQRPCYHGDYVRGKRTGRGVMKNKDGTLYQGEFLENKRHGQGVYYYLNGDVYSGNWKAGAKDGYGTYHFAEGSEYRGEWVRGNFVQGQWILQGGSYYEGKFDKKNRPLDDAASLHYPSIQMAQTGAFRRGIWAPTSALQVCSEVPVDGMAWAD
soluble
MISAIILSGGKAERMGGEKSFRKSGNKYLIENIADMLIEMEIPFVTVFKNPRFMEKPEEEIEKQLYYYKKYHQTITWDFVPGMGPLIGMLSGMLNTKSQWVFLVPCDMPFITEESIINLLSFIKEAELNGYDCIVPKHKNGFIEPLFSLYHISSVNVLGMVVEEMLEQNRSFPIRRLIDELNPLYVDVDKIDKTCDIFINLNTLKELENACFDRLEHHHHHH
soluble

---

# PROTOCOL SUMMARY: soluble on expression in E. coli; label from the status in PepcDB or PDB records
TEST READOUT: soluble on expression in E. coli

KPMKILLANPRGFCAGVDRAISIVERALELYQPPIYVRHEVVHNRFVVEGLKQRGARFVEELNEVPDDNIVIFSAHGVSQAVRQEAKERSLTVFDATCPLVTKVHMEVARASRKHMEVVLIGHAGHPEVEGTMGQYASDTGGMYLVEKPEDVVSLQAKVKDPSNLHYVSQTTLSVDETADVIDELRRVFPKIQGPRKDDICYATQNRQDAVRILAEQVDVMVVVGSKNSSNSTRLKELAEKLGTPGYLIDCPQDIDPEWFVDAQLIGVTAGASAPEELVNQILDRIKELGAT
not soluble
MGSDKIHHHHHHMGSAAQFRRWIRPSARLCNAPFIRATVQVHWRNLYLLSRRSAPRRFHADQEKDMTPRSIIAAGALFAAVATAPAAWASSTYMGALTEAEVLAAQKAWGEALVAISREHEAGGQAKAKALASTVLDKAYGYNLGPVLFKPTLTMAPQTFRTTKDGALAYFVGGDPNYPNDKGFALQGWRSVAIKNAAIQIHGDVATTTGNVMITDKNGNVTTVDKTWAFKKTDDGAIRIVVHHSSLPYTAK
not soluble
MDEVGVASEHLPDLRDRTGHAVNLAVWGDHGPVLVRWDYGAHALPITIRVGATMPLLTSAIGRVYLAHLPATMTTSIVETELETLGTNAPSKSDVARLRATVLEQGVATISGEVIPGVMSVAAPVFPAGQSIPLAVAVALPSSLGDTATVAEVTLELLRTTKAISEDYGSVGGAAGGPIA
not soluble

---

# PROTOCOL SUMMARY: soluble on expression in E. coli; label from the status in PepcDB or PDB records
TEST READOUT: soluble on expression in E. coli

Observe how each entry below is paired with its result.
MGSDKIHHHHHHMSDANVSRLGQANLSGDAKALFLKVFSGEVLTAFQESCVTADKHLVRTITSGKSAQFPILGKISAQYHTPGAEIAGLSVPANEQIITIDDLLISHAFIASIDEAMNHYDVRGPYSTEMGRALSYTYDKHILQLGVLAARASAPVSTEAGGGSVTDSALLTDTTGEALVAALFAAAQKLDEKFIPADERYAYLTPAAYYMLAQNTKLMNSLWGGQGSYAKGELPQVAGISLVKAVHAPFGSNIATVANGGTALTAGTSDKYAVDATSTAALVMHKAAVGTVKLMDLAMESDYDIRRQGTLMVAKYAMGHGILRPAAAVELKTA
not soluble
MSLGSNKTIIINLNNLEHNLNLIKNKIGEKEIVATLKGDAYGHGLINIFKFLKSKNINYFGLSNIEDAKTLKKIDKNIKILMYIKVDKKEIKNLIKFELVPFVSDFEYLFLIEKECALQKNKIKVHLKIDIGMNRYGIKIDDALEIATYIQNSKFLELEGICSHLPSIENFKTTQKQIEQFLFFLETLKQKNIHPKFVHISNSGHIINYKLNPQFNMVRPGLILYGYCQSEGHHHHHH
not soluble
MLGDVYHLFSGGKDSSLAAWILRKLGYEVRLVTITFGVLDNWKYAKETADILGFEHEVVRLPRELLNMAVEMCIEDGKPGRAIQFLHEKALEYVASRSYVKRISDGTRRDDKVPFLDLRKARSLEDRFNVAYIRPLLGLGYKTIRELANSIFVIEERESEKLEKGDYEAELRYMLRERGINPKTIFPSRHMQSRVVGIKDDELGRS
soluble
MSLKLVTFDLDDTLWDTAPAIAGAEVTLRDWLAEHAPKLGAIPVEHLWEIRSRLVAEDPSFKHRISALRRRVLFHALEDAGYDPDEAQDLADRGFEVFLHGRHQVQIFPEVQPMLEILAKTFTLGVITNGNADVRRLGLADYFAFALCAEDLGIGKPDPAPFVEALRRAKVDASAAVHVGDHPKDDIAGAQQAGMRAIWYNPQGKAWDADRLPDAEIHNLSQLPEVLARWAEGHHHHHH
soluble
MSLSNIHHLERSLRKLRLTRVGAEWHALEKRALAEGWTPSRYLLTLCNEELLWRESEKLRRYKKEARLPVAKTLSEYDFSQVPELNGAQFRQLCETTDWVDAGENVLLFGASGLGKSHLAAAIVDGVVGQGYRARFYSAGELLQELRKARAQLKLNELLLKLDRYRVIVVDDLGYVKRDSAETGVLFELIAHRYERGSLVITSNHPFSMWGSIFVDETMAVAAADRLIHHGYMFELKGESYRKKTAKAVTSATEGHHHHHH
soluble

Data request: Could you share which soluble on expression in E. coli value was measured for "MVPSFPFQRLPNKPFQNVLKSMSVGNLLSYSMCSEASKSHVTNLKVKINSFEINVTENVHLFVKSEHGPTFNFRTVTSANGNISDDVTPANENEKHRWYKKGFELRNWIEHFLSVLNHSKIDKLNFISQQGERSKNDYLRDSLEGFKVDCFTVQQCSESYQRSIFRNFSPINTFIICATGAESTKAISSALPHNLKDFGYVSRGATWNFSLDNLLLSNSRNLVVIEARFSFPDINMFLKHWLNGSNRRLTNAYFIYTTPLVSEDISKGLPFSIPSEAEISKLPSDLMEHRETMFQLKRKFDSTATIVLKQNNGKHVFNMFVEHF" ?
Data returned: not soluble
